Measured values drawn from PubChem BioAssay (NCI) for this set.

Test system: HCC-2998 colon
Assay: NCI-60 one-dose screen, 48 h (100 = growth as untreated, 0 = no growth, -100 = all killed)
Conditions: 10 µM unless noted
Description: Growth inhibition of the HCC-2998 human tumor cell line is measured as a screen for anti-cancer activity. Cells are grown in 96 well plates and exposed to the test compound for 48 hours. Compounds are tested at a single concentration, which is 10^-5 M for most compounds. The reported endpoint is percent growth (GI% or GIPRCNT), where numbers from 0 - 100% represent growth inhibition, and numbers from -100% - 0 represent cell death. For example, a value of 40 represents 60% growth inhibition. […]
About 83,000 compounds went through this panel and 20% of them were active in at least one assay; those are over-represented in the sample as a whole.
Below is a list of entries, each paired with its recorded growth value.

molecule | growth (%)
C=C(C)[C@@H]1CC[C@]2(C=O)CC[C@]3(C)[C@H](CC[C@@H]4[C@@]5(C)C/C(=C/c6cccnc6)C(=O)C(C)(C)[C@@H]5CC[C@]43C)[C@@H]12 | 99
COc1ccc(-c2n[nH]nc2-c2cc3ccccc3s2)cc1O | 29.2
CC(=O)O[C@H]1CC[C@]2(C)[C@H]3C(=O)C=C4[C@@H]5C[C@](C)(C(=O)N6CCCNCC6)CC[C@]5(C)CC[C@@]4(C)[C@]3(C)CC[C@H]2C1(C)C | 11.2
CC(=O)OCCCCCCn1c2ccccc2c2c3c(c4c5ccccc5n(C)c4c21)C(=O)N(O)C3=O | 76
CC(=O)NC1=C(C#N)C(c2ccccc2Cl)c2c(ccc3ccccc23)O1 (stereo not drawn) | 85.4
OCC1OC(n2cnc3c(Cl)ncnc32)CC1O (stereo not drawn) | 108
COc1cc2c(cc1OC)C(=O)/C(=C/c1cc(-c3ccc4c(c3)OCO4)n[nH]1)C2 | 89.3
O=C1c2ccccc2NC(c2cn(-c3ccccc3)nc2-c2cccnc2)N1Cc1ccccc1 (stereo not drawn) | 97.2
